Items are presented alongside their recorded melting point.

Worked set:
>>> measured("Cc1ccc2c(c1)/C(=N/N1CC(=O)N(CCCCN3CCN(C)CC3)C1=O)CCO2.O=C(O)/C=C/C(=O)O")
"231 to 233 °C"
>>> measured("CCOc1ccc2c(c1)/C(=N/N1CC(=O)N(CCCCN3CCN(C)CC3)C1=O)CCO2.O=C(O)/C=C/C(=O)O")
"225 to 227 °C"

Continue with the compound presented below.
## Task // lookup melting point for CN1CCN(CCCCN2C(=O)CN(/N=C3\CCOc4ccc(C(N)=O)cc43)C2=O)CC1.O=C(O)/C=C/C(=O)O
## Result 192 to 194 °C

====

target: rapidly delayed rectifier potassium channel current (IKr) (Cavia porcellus); construct: the Guinea pig myocardial cells are separated with enzymolysis; endogenous in cells; assay: whole cell patch clamp on isolated Guinea pig myocardial cells, IKr; details: Guinea pig ventricular myocytes, current recorded 10 min after administration, 25-30° C.
Sequence (O08703 whole entry): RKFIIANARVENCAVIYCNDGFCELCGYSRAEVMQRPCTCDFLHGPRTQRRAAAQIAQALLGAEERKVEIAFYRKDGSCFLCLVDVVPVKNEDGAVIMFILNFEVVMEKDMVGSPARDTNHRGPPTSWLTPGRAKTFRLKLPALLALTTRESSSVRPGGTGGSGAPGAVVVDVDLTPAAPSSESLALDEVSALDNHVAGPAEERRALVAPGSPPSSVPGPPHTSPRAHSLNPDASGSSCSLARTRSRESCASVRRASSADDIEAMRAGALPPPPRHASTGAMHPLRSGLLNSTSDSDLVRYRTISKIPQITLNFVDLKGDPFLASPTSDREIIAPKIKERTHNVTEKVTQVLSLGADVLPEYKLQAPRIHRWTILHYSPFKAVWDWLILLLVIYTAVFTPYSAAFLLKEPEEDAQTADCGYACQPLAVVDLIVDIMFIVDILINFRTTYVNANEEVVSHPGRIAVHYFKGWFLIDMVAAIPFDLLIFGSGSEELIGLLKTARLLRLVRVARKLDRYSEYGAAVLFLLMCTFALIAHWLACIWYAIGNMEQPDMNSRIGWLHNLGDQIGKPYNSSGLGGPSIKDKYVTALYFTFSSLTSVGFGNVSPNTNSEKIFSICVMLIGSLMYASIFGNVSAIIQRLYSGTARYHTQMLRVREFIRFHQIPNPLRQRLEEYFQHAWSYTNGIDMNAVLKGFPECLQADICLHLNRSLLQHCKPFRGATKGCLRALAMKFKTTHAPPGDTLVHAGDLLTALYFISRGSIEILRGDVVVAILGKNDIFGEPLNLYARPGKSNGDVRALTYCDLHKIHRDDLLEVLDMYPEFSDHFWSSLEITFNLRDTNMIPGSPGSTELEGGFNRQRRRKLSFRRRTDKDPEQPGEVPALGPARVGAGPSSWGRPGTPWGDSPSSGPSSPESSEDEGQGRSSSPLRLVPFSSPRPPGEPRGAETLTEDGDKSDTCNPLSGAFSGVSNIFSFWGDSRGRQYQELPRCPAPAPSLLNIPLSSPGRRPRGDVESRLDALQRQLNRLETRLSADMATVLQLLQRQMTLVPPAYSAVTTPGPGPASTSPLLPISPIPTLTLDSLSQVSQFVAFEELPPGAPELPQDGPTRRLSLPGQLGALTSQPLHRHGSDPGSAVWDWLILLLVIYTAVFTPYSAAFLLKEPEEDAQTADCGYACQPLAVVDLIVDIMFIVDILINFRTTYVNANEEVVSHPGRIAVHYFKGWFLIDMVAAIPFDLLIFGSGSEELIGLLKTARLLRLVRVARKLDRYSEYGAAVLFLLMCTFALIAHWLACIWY
endpointLabel: IC50 (µM)
Write the number in µM without appending the unit.

// solved cases for IC50 follow
>>> measured("COc1ccc2c(c1)/C(=N/N1CC(=O)N(CCCN3CCN(C)CC3)C1=O)CCO2")
0.54
>>> measured("Cc1ccc2c(c1)/C(=N/N1CC(=O)N(CCCCN3CCCCC3)C1=O)CCO2")
22
>>> measured("COc1ccc2c(c1)/C(=N/N1CC(=O)N(CCCCN3CCCCC3)C1=O)CCO2")
7.47

## Task What does the data say about its IC50? Entry: CN1CCN(CCCN2C(=O)CN(N=C3CCOc4ccc(Cl)cc43)C2=O)CC1
## Result 3.87

## Task Which IC50 value is on record for CCCOc1ccc2c(c1)/C(=N/N1CC(=O)N(CCCCN3CCCCC3)C1=O)CCO2 ?
## Result 0.4

## Task Fill in the blank: the reported IC50 of CCOc1ccc2c(c1)/C(=N/N1CC(=O)N(CCCN3CCN(C)CC3)C1=O)CCO2 is ____.
## Result 4.34
